Target: Gal(b1-3)GlcNAc(b1-6)Gal(b1-4)GlcNAc
Experiment: glycan array binding signal (z-score within array); higher = stronger binding
Conditions: glycan notation: IUPAC condensed, linker removed
The entries come from a sample that favours the strongest signals as a whole.
For each entry below, report its glycan array binding signal (z-score) value.
Response field accepts a number only; no unit should be typed.

## Input glycan array binding signal (z-score) for CFEM-PPm (Pichia pastoris), F2QPV1 (protein) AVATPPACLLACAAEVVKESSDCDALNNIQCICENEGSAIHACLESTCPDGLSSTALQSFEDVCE ?
## Output -0.102

## Input Data request, read-out glycan array binding signal (z-score), for DC-ASGPR L+GEE (Homo sapiens) (protein) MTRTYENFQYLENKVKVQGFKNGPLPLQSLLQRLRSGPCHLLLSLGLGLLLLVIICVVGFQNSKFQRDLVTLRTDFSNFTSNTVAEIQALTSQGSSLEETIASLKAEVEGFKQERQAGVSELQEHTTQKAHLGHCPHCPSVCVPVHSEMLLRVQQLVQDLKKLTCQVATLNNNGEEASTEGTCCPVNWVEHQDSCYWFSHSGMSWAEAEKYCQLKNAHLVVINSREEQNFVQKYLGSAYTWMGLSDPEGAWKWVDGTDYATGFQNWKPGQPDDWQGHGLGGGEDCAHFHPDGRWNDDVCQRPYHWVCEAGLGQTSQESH
## Output -0.073
